Source listed as patent US7868022B2.

# Target system: UniProt P56817
# Sequence (P56817 46-501): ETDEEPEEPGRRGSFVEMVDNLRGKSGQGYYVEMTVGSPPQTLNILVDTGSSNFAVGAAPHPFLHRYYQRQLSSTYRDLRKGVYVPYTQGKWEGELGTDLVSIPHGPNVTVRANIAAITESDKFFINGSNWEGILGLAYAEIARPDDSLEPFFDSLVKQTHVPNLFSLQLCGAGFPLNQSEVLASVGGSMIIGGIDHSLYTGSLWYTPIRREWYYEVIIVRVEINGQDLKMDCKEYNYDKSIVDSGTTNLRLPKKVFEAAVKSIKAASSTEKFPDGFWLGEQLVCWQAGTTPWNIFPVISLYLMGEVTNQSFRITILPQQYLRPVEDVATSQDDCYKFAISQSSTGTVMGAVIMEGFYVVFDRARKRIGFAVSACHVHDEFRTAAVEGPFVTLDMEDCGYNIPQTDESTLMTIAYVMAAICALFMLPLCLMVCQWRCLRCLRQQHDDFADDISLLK
# Assay remarks: In Vitro BACE Assay run by CEREP (Example 19)
# Assay type: biochemical
# Reported conditions: pH 4.5, 10.0 μM compound, recombinant enzyme
For each record, write down the corresponding inhibition at 10 µM.
Numbers only, in %.

> print(dat)
                                   compound  display.unit  numeric.readout
1  COc1cc2nc(N)c(C(CCCN(CCN3CCOCC3)C3CCCCC3)C3CCOCC3)cc2cc1Oc1ccccc1 (stereo not shown)             %               95
2  CC(C)(C)CCN(CCCC(c1cc2cc(Oc3ccccc3)ccc2nc1N)C1CCOCC1)CCN1CCCC1 (stereo not shown)             %               95
3  COc1cc2nc(N)c(C(CCC(=O)NCCC(C)(C)C)C3CCOCC3)cc2cc1Oc1ccccc1 (stereo not shown)             %               72

Could you now look at the following compound, please?
Data request: Look up inhibition at 10 µM for this compound: Nc1nc2ccc(Oc3ccccc3)cc2cc1C(CCCC(=O)N(CCN1CCOCC1)C1CCCCC1)C1CCOCC1 (stereo not shown)
Data returned: 94
